System: 186277-243-T-J2-PDC complex spheroid viability;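 also: spheroids exposed to compounds for seven days; 100% = DMSO vehicle control viability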
Assay Text: Anticancer human tumor 186277-243-T-J2-PDC patient-derived colon adenocarcinoma cell line growth inhibition [POLQ]
Conditions Used: second compound 3.16 µM; first compound 10 µM; hits give low values

Compound: COc1ccc([C@@H](O)c2cc(-c3ncnc4cc(N5CCOCC5)ccc34)c(F)cc2Cl)nn1 + Cc1cccc(N(C)C(=O)C2C(O)CCN2c2nc(C)cc(C(F)(F)F)c2C#N)c1
Unit Name: %
viability, T/C: 26.2
--
Compound: COc1cc(C2c3cc4c(cc3C(OC3OC5COC(C)OC5C(O)C3O)C3COC(=O)C23)OCO4)cc(OC)c1O (stereo not given) + Cc1cccc(N(C)C(=O)C2C(O)CCN2c2nc(C)cc(C(F)(F)F)c2C#N)c1
Unit Name: %
viability, T/C: 13.4
--
Compound: O=C(Nc1ccc(O)c(NS(=O)(=O)c2ccc(F)cc2)c1)c1ccc(-c2ccccc2)cc1 + COC1C(OC(N)=O)C(O)C(Oc2ccc3c(O)c(NC(=O)c4ccc(O)c(CC=C(C)C)c4)c(=O)oc3c2C)OC1(C)C
Unit Name: %
viability, T/C: 91.5
--
Compound: CCCS(=O)(=O)Nc1ccc(F)c(C(=O)c2c[nH]c3ncc(-c4ccc(Cl)cc4)cc23)c1F + COC1C(OC(N)=O)C(O)C(Oc2ccc3c(O)c(NC(=O)c4ccc(O)c(CC=C(C)C)c4)c(=O)oc3c2C)OC1(C)C
Unit Name: %
viability, T/C: 46.7
--
Compound: CC1COCCN1c1cc(C2(O)CC3CCC(C2)O3)c2cnn(-c3ccn[nH]3)c2n1 (stereo not given) + COC1C(OC(N)=O)C(O)C(Oc2ccc3c(O)c(NC(=O)c4ccc(O)c(CC=C(C)C)c4)c(=O)oc3c2C)OC1(C)C
Unit Name: %
viability, T/C: 3.12
--
Compound: CNCc1ccc(-c2[nH]c3cc(F)cc4c3c2CCNC4=O)cc1 + COC1C(OC(N)=O)C(O)C(Oc2ccc3c(O)c(NC(=O)c4ccc(O)c(CC=C(C)C)c4)c(=O)oc3c2C)OC1(C)C
Unit Name: %
viability, T/C: 112
--
Compound: CC(C)n1c(=O)n(C)c2cnc3cc(F)c(-c4ccc(OCCCN5CCCCC5)nc4)cc3c21 + Nc1ccc(C#CCN(C(=O)Cc2ncc(C(F)(F)F)cc2C(F)(F)F)c2ccc(F)cc2)nn1
Unit Name: %
viability, T/C: 105
--
Compound: CC(C)n1c(=O)n(C)c2cnc3cc(F)c(-c4ccc(OCCCN5CCCCC5)nc4)cc3c21 + Cc1cccc(N(C)C(=O)C2C(O)CCN2c2nc(C)cc(C(F)(F)F)c2C#N)c1
Unit Name: %
viability, T/C: 97.2
--
Compound: CCc1cc2c(N3CCc4c(cc(Cn5ccnc5)cc4-c4cn(C)nc4C(F)(F)F)C3=O)ccnc2c(OC)n1 + Cc1cccc(N(C)C(=O)C2C(O)CCN2c2nc(C)cc(C(F)(F)F)c2C#N)c1
Unit Name: %
viability, T/C: 106
--
Compound: CCc1cc2c(N3CCc4c(cc(Cn5ccnc5)cc4-c4cn(C)nc4C(F)(F)F)C3=O)cc(C)nc2c(OC)n1 + COC1C(OC(N)=O)C(O)C(Oc2ccc3c(O)c(NC(=O)c4ccc(O)c(CC=C(C)C)c4)c(=O)oc3c2C)OC1(C)C
Unit Name: %
viability, T/C: 72.4
--
Compound: Nc1ccn(C2OC(CO)C(O)C2(F)F)c(=O)n1 (stereo not given) + Nc1ccc(C#CCN(C(=O)Cc2ncc(C(F)(F)F)cc2C(F)(F)F)c2ccc(F)cc2)nn1
Unit Name: %
viability, T/C: 15.3
--
Compound: CC1COCCN1c1cc(C2(S(C)(=N)=O)CC2)nc(-c2ccnc3[nH]ccc23)n1 (stereo not given) + Cc1cccc(N(C)C(=O)C2C(O)CCN2c2nc(C)cc(C(F)(F)F)c2C#N)c1
Unit Name: %
viability, T/C: 6.42
--
Compound: CCc1cc2c(N3CCc4c(cc(Cn5ccnc5)cc4-c4cn(C)nc4C(F)(F)F)C3=O)ccnc2c(OC)n1 + COC1C(OC(N)=O)C(O)C(Oc2ccc3c(O)c(NC(=O)c4ccc(O)c(CC=C(C)C)c4)c(=O)oc3c2C)OC1(C)C
Unit Name: %
viability, T/C: 75.5
--
Compound: O=c1[nH]cc(F)c(=O)[nH]1 + Cc1cccc(N(C)C(=O)C2C(O)CCN2c2nc(C)cc(C(F)(F)F)c2C#N)c1
Unit Name: %
viability, T/C: 52.1
--
Compound: COc1cccc2c1C(=O)c1c(O)c3c(c(O)c1C2=O)CC(O)(C(=O)CO)CC3OC1CC(N)C(O)C(C)O1 (stereo not given) + Nc1ccc(C#CCN(C(=O)Cc2ncc(C(F)(F)F)cc2C(F)(F)F)c2ccc(F)cc2)nn1
Unit Name: %
viability, T/C: 1.74
--
Compound: Nc1ccn(C2OC(CO)C(O)C2(F)F)c(=O)n1 (stereo not given) + Cc1cccc(N(C)C(=O)C2C(O)CCN2c2nc(C)cc(C(F)(F)F)c2C#N)c1
Unit Name: %
viability, T/C: 6.36
--
Compound: COc1cccc2c1C(=O)c1c(O)c3c(c(O)c1C2=O)CC(O)(C(=O)CO)CC3OC1CC(N)C(O)C(C)O1 (stereo not given) + Cc1cccc(N(C)C(=O)C2C(O)CCN2c2nc(C)cc(C(F)(F)F)c2C#N)c1
Unit Name: %
viability, T/C: 0.34
--
Compound: COc1ccc([C@@H](O)c2cc(-c3ncnc4cc(N5CCOCC5)ccc34)c(F)cc2Cl)nn1 + Nc1ccc(C#CCN(C(=O)Cc2ncc(C(F)(F)F)cc2C(F)(F)F)c2ccc(F)cc2)nn1
Unit Name: %
viability, T/C: 63.2
--
Compound: CC1COCCN1c1cc(C2(S(C)(=N)=O)CC2)nc(-c2ccnc3[nH]ccc23)n1 (stereo not given) + COC1C(OC(N)=O)C(O)C(Oc2ccc3c(O)c(NC(=O)c4ccc(O)c(CC=C(C)C)c4)c(=O)oc3c2C)OC1(C)C
Unit Name: %
viability, T/C: 5.04
--
Compound: COc1cccc2c1C(=O)c1c(O)c3c(c(O)c1C2=O)CC(O)(C(=O)CO)CC3OC1CC(N)C(O)C(C)O1 (stereo not given) + COC1C(OC(N)=O)C(O)C(Oc2ccc3c(O)c(NC(=O)c4ccc(O)c(CC=C(C)C)c4)c(=O)oc3c2C)OC1(C)C
Unit Name: %
viability, T/C: 0.37
